# STUDY SYSTEM: CDC7/DBF4 (Cell division cycle 7-related protein kinase/Activator of S phase kinase) (Homo sapiens)
# Sequence (Q9UBU7 whole entry): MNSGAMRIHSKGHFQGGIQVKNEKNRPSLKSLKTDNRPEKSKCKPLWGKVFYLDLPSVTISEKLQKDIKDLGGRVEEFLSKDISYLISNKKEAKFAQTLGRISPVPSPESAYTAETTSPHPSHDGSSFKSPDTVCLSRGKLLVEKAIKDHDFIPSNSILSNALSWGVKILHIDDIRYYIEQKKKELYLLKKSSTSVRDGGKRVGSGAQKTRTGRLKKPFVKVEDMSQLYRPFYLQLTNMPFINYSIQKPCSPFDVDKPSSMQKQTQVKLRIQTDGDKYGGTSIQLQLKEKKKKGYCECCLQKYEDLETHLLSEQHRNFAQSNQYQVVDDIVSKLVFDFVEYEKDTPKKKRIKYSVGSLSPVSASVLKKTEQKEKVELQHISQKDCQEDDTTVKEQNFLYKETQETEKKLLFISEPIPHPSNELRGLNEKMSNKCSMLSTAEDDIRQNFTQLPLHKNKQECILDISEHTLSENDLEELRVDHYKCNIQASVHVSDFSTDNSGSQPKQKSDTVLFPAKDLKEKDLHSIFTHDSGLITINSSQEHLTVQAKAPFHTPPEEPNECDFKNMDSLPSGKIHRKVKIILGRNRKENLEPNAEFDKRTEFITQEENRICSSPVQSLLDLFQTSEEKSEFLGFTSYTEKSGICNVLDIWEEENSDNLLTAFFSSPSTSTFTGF
# Sequence (O00311 whole entry): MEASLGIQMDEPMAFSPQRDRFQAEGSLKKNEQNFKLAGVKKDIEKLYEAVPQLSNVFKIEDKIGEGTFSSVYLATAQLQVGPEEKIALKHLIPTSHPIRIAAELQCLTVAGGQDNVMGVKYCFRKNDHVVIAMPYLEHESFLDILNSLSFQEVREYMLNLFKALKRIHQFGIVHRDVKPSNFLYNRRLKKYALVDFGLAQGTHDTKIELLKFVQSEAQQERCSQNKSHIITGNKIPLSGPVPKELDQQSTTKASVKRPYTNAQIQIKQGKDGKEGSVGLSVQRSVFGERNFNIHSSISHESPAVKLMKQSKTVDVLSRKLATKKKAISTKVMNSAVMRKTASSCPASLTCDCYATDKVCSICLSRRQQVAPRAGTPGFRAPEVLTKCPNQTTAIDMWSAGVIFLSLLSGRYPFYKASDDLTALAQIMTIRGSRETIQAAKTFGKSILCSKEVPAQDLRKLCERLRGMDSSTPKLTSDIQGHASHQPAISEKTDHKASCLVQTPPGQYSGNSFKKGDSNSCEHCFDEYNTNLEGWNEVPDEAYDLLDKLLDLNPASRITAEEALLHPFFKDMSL
# METHOD NOTES: Inhibition of CDC7/DBF4 using MCM-2 as substrate after 1 hr
IC50: recorded values
Supply the numeric figure in nM, leaving out any unit text.

>>> test_result("O=C1NCCc2sc(-c3ccncc3)cc21")
33
>>> test_result("O=C1CCC2(CCCCC2)c2sc(-c3cn[nH]c3)cc21")
1
>>> test_result("O=C1NCC2(CCCCC2)c2sc(-c3cn[nH]c3)cc21")
1
>>> test_result("O=C1NCC2(CCCCC2)c2sc(-c3cc[nH]n3)cc21")
370

Now for another entry.
Value of IC50 reported for the compound O=C1NCC2(CCCCC2)c2sc(-c3cccnc3)cc21 is 5100
